Exercise: state measured TGI for each of the compounds provided.
system: U251 CNS; assay: NCI tumour cell line growth inhibition, 48 h
Your answer is read as µM, so omit the unit and give the number.

The recorded TGI with U251 CNS for COc1ccc2c(c1)[nH]c(=O)c1c3cccc(F)c3cn21 was 14.8

# lookup: COc1ccc2c3c([nH]c2c1[N+](=O)[O-])C(C)N(Cc1ccccc1)CC3 (stereo not given) on U251 CNS, TGI = 8.73

Record Cc1c(N=Nc2ccccc2)c(C)n(C2OC(CO)C(O)C(O)C2O)c(=S)c1C#N (stereo not given) has U251 CNS TGI equal to 87.2

Readout TGI for CCOC(=O)Oc1cc2c(c(OC)c1OC)-c1ccc(OC)c(=O)cc1C(NC(C)=O)CC2 (stereo not given) , test system U251 CNS, was 8.56

Reported U251 CNS TGI for item O=C1CC[C@@]2(O)[C@H]3Cc4ccc(-c5ccccc5)c5c4[C@@]2(CCN3CC2CC2)[C@H]1O5 was 32.1

For Cc1sc2c(c1C)/C(=N\O)c1cccn1-2 on U251 CNS, measured TGI was 69.7

Note to self: TGI of C=C1CC(Cn2ccc(=O)[nH]c2=O)(c2ccc(Cl)cc2)OC1=O (stereo not given) with U251 CNS was 31.7
